Data origin: patent US9828350B2

Tested on: Abeta total
Test: Cellular αLisa assay in SKNBE2 cells, Abeta total
Type: cell-based, human
Conditions: Homo sapiens, SKNBE2, 18 h, incubated for 18 hours, read-out: Cellular αLisa assay in SKNBE2 cells Abetatotal pIC50 (converted)
valueType: IC50 (nM)

[[record]]
smilesrepresentation = "N#Cc1cnc(C(=O)Nc2ccc(F)c([C@@]3(C4CC4)N=C(N)CO[C@H]3C(F)(F)F)c2)c(Cl)c1"
displayunit = "nM"
measurement = 14.1


1 = C[C@]1(c2cc(NC(=O)c3ncc(Cl)cc3Cl)ccc2F)N=C(N)CO[C@H]1C(F)(F)F
2 = C[C@]1(c2cc(NC(=O)c3ccncn3)ccc2F)N=C(N)CO[C@H]1C(F)(F)F
3 = C[C@]1(c2cc(NC(=O)c3ccc(C#N)cn3)ccc2F)N=C(N)CO[C@@]1(F)C(F)(F)F
hey, can you rank those compounds up there by IC50? biggest number first please Your task in answering is to list the labels in the requested order.
2, 3, 1

###

Test system: Abeta total
Test: Cellular αLisa assay in SKNBE2 cells, Abeta total
Format: cell-based, human
Conditions: Homo sapiens, SKNBE2, 18 h, incubated for 18 hours, read-out: Cellular αLisa assay in SKNBE2 cells Abetatotal pIC50 (converted)
valueType: IC50 (nM)

P = NC1=N[C@@](c2cc(NC(=O)c3ncc(Cl)cc3Cl)ccc2F)(C2CC2)[C@@H](F)OC1 [Compound 259]
Q = C[C@@]1(c2cc(NC(=O)c3ccc(Cl)cn3)ccc2F)N=C(N)CO[C@]1(F)C(F)(F)F (single isomer, unassigned) [Compound 109]
R = C[C@]1(c2cc(-c3cncc(Cl)c3)c(F)cc2F)N=C(N)CO[C@H]1C(F)(F)F [Compound 255]
S = NC1=N[C@@](c2cc(NC(=O)c3ncc(Cl)cc3Cl)ccc2F)(C2CC2)[C@H](C(F)(F)F)OC1 [Compound 234]
T = N#Cc1ccc(C(=O)Nc2cccc([C@@]3(C4CC4)N=C(N)CO[C@H]3C(F)(F)F)c2)nc1 [Compound 225]
List the 5 entries from lowest IC50 to highest IC50 value. Your task in answering is to list the labels in the requested order.
T, S, P, R, Q

1 = N#Cc1ccc(C(=O)Nc2ccc(F)c([C@@]3(C4CC4)N=C(N)CO[C@@H]3F)c2)nc1 [Compound 214]
2 = CC1(c2cc(NC(=O)c3ccc(Cl)cn3)ccc2F)N=C(N)COC1C(F)(F)F (racemic) [Compound 107]
3 = C[C@]1(c2ccnc(-c3cc(Cl)cc(Cl)c3)c2)N=C(N)CO[C@@H]1F (single isomer, unassigned) [Compound 277]
4 = COc1cnc(C(=O)Nc2ccc(F)c(C3(C)N=C(N)COC3F)c2)cn1 (stereo not drawn) [Compound 79]
5 = NC1=N[C@@](c2cc(NC(=O)c3ncc(Cl)cc3F)ccc2F)(C2CC2)[C@H](F)OC1 [Compound 220]
Ascending by IC50, please. Your task in answering is to list the labels in the requested order.
2, 4, 3, 5, 1
(2: 12.6 nM, 4: 25.7 nM, 3: 112 nM, 5: 347 nM, 1: 708 nM)

I = COc1cnc(C(=O)Nc2ccc(F)c([C@@]3(C4CC4)N=C(N)CO[C@H]3C(F)(F)F)c2)cn1 [Compound 230]
II = COc1cnc(C(=O)Nc2ccc(F)c([C@]3(C4CC4)COCC(N)=N3)c2)cn1 [Compound 299]
Quick check, higher IC50 between I and II ? Pick one; state its label.
II
